Molecular target: T1, EsCas13d, nuclease-dead (Eubacterium siraeum, UniProt B0MS50, R295A;H300A;R849A;H854A)
T1 sequence: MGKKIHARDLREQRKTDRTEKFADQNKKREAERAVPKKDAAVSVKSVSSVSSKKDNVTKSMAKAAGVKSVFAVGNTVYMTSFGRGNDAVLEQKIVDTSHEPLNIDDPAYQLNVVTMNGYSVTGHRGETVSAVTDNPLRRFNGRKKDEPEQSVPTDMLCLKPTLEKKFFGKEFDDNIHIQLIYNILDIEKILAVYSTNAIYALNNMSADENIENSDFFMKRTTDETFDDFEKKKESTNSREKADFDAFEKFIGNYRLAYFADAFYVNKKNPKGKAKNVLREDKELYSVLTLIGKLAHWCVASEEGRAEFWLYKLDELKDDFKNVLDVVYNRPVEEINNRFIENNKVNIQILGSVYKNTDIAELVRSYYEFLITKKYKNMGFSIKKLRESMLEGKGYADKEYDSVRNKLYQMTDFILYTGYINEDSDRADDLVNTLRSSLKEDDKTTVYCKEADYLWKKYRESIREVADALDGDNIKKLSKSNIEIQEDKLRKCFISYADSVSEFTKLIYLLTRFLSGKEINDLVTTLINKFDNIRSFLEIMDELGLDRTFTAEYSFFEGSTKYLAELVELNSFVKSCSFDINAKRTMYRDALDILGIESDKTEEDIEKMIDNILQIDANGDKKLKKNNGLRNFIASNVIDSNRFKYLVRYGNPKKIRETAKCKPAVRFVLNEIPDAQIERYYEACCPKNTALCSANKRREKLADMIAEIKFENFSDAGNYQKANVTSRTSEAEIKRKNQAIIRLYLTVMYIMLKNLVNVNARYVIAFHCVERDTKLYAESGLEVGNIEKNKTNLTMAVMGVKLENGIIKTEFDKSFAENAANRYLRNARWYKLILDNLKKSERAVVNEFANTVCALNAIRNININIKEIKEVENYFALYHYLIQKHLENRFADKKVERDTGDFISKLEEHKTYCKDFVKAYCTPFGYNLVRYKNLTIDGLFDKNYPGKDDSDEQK
Experiment: crRNA (strand 1, pre-loaded); Mg2+; 40 mM Tris-HCl pH 7.5, 150 mM NaCl, 6 mM MgCl2, 1 mM DTT, 0.1% Tween-20, 0.2 mg/ml BSA; 25 C; 10 min per concentration, then washed
Settings: tags: His6-TwinStrep-SUMO cleaved; N-terminal SNAP kept (SNAP-Surface 488); label: 3' end held by stalled T7 RNA polymerase
measured_parameter: pKd
Scale: pKd equals -log10([C]), with [C] in mol/L.

// below: answered binders
binder="target 1 U3G,C7A (mixed) RNA 1: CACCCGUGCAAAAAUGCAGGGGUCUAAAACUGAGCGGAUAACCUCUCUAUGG RNA 2: GGGAAUGGAUCCACAUCUACGAAUUCGUACCAUAGAGAGGUUAUACGCGCACCGAGAUCGGAAGAGCACACGU" measured_parameter=pKd experimental_result=8.14
binder="target 1 A1C,C2G (mixed) RNA 1: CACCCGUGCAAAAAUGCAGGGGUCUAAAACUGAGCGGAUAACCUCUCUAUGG RNA 2: GGGAAUGGAUCCACAUCUACGAAUUCGUACCAUAGAGAGGUUAUCCGCUGCCCGAGAUCGGAAGAGCACACGU" measured_parameter=pKd experimental_result=7.46
binder="target 1 insU 3' of 5,insC 3' of 1 (mixed) RNA 1: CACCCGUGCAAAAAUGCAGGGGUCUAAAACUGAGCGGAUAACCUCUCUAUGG RNA 2: GGGAAUGGAUCCACAUCUACGAAUUCGUACCAUAGAGAGGUUAUCCGUCUCACCCGAGAUCGGAAGAGCACACGU" measured_parameter=pKd experimental_result=7.67

Please indicate pKd recorded for target 2 MT 5'PFS CGC 3'PFS UUG (mixed) RNA 1: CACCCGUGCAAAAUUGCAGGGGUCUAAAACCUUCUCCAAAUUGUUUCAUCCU RNA 2: GGGAAUGGAUCCACAUCUACGAAUUCCGCAGGAUGAAACAAUUUGGAGAAGUUGAGAUCGGAAGAGCACACGU
8.09
